Consider the following IC50 data for Ephrin type-B receptor 4 (Homo sapiens, UniProt P54760), collected from several reports.

| COMPOUND STRING | MEASUREMENT LABEL | READOUT VALUE |
| --- | --- | --- |
| COc1cccc(Nc2ncnc(Nc3cc(OC)c(OC)c(OC)c3)n2)c1 | IC50 | > 11700 nM |

State the recorded IC50 for every item in the following list.
1. COc1cc2c(Nc3ccc(Cl)c(Cl)c3)ncnc2cc1OCc1csc(N(C)C)n1
2. CN1CCN(c2ccc(-c3cc(-c4ccc(NC(=O)Nc5ccc6c(c5)OCCO6)cc4)n[nH]3)cc2)CC1
3. COc1cc2c(Nc3ccc(Br)c(Cl)c3)ncnc2cc1O[C@H]1CO[C@@H]2[C@@H](OC)[C@H](OC)O[C@@H]21

**A:**
1. < 50 nM
2. > 5000 nM
3. < 50 nM
